- Tested on: Tobacco mosaic virus
- testDetails: Antiviral activity against Tobacco mosaic virus (TMV) infected leaves assessed as viral inhibition at 100 ug/mL at 25 degC for 72 hr
- Type: functional
// inhibition at 100 µg/mL lookup, one value per entry
Report as a plain number; the unit % is understood.

# annotated cases, reported inhibition at 100 µg/mL shown
{"compound": "Cc1nnsc1C1=NNC2SC(C(Cl)(Cl)Cl)=NN12 (stereo not given)", "readoutType": "inhibition at 100 µg/mL", "measurement": 33.3}
{"compound": "Cc1nnsc1C1=NNC2SC(c3ccccc3F)=NN12 (stereo not given)", "readoutType": "inhibition at 100 µg/mL", "measurement": 9.5}
{"compound": "Cc1nnsc1C1=NNC2SC(c3cccc(OC(F)(F)F)c3)=NN12 (stereo not given)", "readoutType": "inhibition at 100 µg/mL", "measurement": 30}

Task item: Tobacco mosaic virus / inhibition at 100 µg/mL / Cc1nnsc1C1=NNC2SC(c3cccc(F)c3)=NN12 (stereo not given) : value?
Reply: 24.2

Task item: Fill in the recorded inhibition at 100 µg/mL for this compound, with Tobacco mosaic virus as test system: Cc1nnsc1C1=NNC2SC(c3cccc([N+](=O)[O-])c3)=NN12 (stereo not given)
Reply: 44.4

Task item: Item `Cc1ccc(NC(=O)c2snnc2C)cc1Cl` with Tobacco mosaic virus - inhibition at 100 µg/mL?
Reply: 36.6

Task item: Identify the measured inhibition at 100 µg/mL of Cc1nnsc1C1=NNC2SC(c3ccc([N+](=O)[O-])cc3)=NN12 (stereo not given) for Tobacco mosaic virus.
Reply: 16.7

Task item: Requested read-out inhibition at 100 µg/mL, target or system Tobacco mosaic virus, entry Cc1nnsc1C1=NNC2SC(/C=C/c3ccccc3)=NN12 (stereo not given)
Reply: 16.7

Task item: Request - read-out inhibition at 100 µg/mL | tested on Tobacco mosaic virus | compound Cc1nnsc1C1=NNC2SC(c3ccco3)=NN12 (stereo not given)
Reply: 20

Task item: Given the entry `NC(=O)c1ncn([C@@H]2O[C@H](CO)[C@@H](O)[C@H]2O)n1` , what inhibition at 100 µg/mL was observed with Tobacco mosaic virus?
Reply: 21.6

----------
- Test system: Botryosphaeria berengeriana
- testDetails: Fungicide activity against Botryosphaeria berengeriana assessed as growth inhibition at 50 ug/mL at 24 to 26 degC measured after 2 days
- Format: functional
- conditionDescription: 48 h, read-out: GI
So basically, the class depends on measured inhibition of growth at 50 µg/mL, and the ranges are group A = under 20%, group B = from 20% up to 30%, group C = 30% and over

Example cases with answers are listed next.
{"molecule": "Cc1nnsc1C1=NNC2SC(c3ccccc3OC(F)(F)F)=NN12 (configuration not stated)", "categoryLabel": "group A"}
{"molecule": "Cc1nnsc1C1=NNC2SC(C(C)(C)C)=NN12 (configuration not stated)", "categoryLabel": "group A"}
{"molecule": "Cc1nnsc1C1=NNC2SC(c3c(Cl)cccc3Cl)=NN12 (configuration not stated)", "categoryLabel": "group C"}
{"molecule": "Cc1nnsc1C1=NNC2SC(c3cccc(F)c3)=NN12 (configuration not stated)", "categoryLabel": "group C"}
{"molecule": "Cc1nnsc1C1=NNC2SC(c3c(-c4ccccc4)noc3C)=NN12 (configuration not stated)", "categoryLabel": "group A"}
{"molecule": "Cc1nnsc1C1=NNC2SC(C(Cl)(Cl)Cl)=NN12 (configuration not stated)", "categoryLabel": "group C"}
{"molecule": "Cc1nnsc1C1=NNC2SC(CCl)=NN12 (configuration not stated)", "categoryLabel": "group C"}
{"molecule": "COc1cccc(C2=NN3C(c4snnc4C)=NNC3S2)c1 (configuration not stated)", "categoryLabel": "group C"}
{"molecule": "Cc1nnsc1C1=NNC2SC(c3ccccc3F)=NN12 (configuration not stated)", "categoryLabel": "group B"}
{"molecule": "COc1ccccc1C1=NN2C(c3snnc3C)=NNC2S1 (configuration not stated)", "categoryLabel": "group B"}

Task item: Band for Cc1nnsc1C1=NNC2SC(c3ccc(OC(F)(F)F)cc3)=NN12 (configuration not stated) ?
Reply: group A

Task item: Consider Cc1nnsc1C1=NNC2SC(c3ccc([N+](=O)[O-])cc3)=NN12 (configuration not stated) . To which inhibition of growth at 50 µg/mL class does it belong?
Reply: group C

Task item: Into which bin does this molecule go? Cc1nnsc1C1=NNC2SC(c3ccncc3)=NN12 (configuration not stated)
Reply: group A

----------
- Tested on: Phytophthora infestans
- testDetails: Fungicide activity against Phytophthora infestans assessed as growth inhibition at 50 ug/mL at 24 to 26 degC measured after 2 days
- Type: functional
- conditionDescription: 48 h, read-out: GI
readoutType: inhibition of growth at 50 µg/mL
Please make sure the unit comes right after the number.

Here are 2 molecules together with their reported answers.
{"molecule": "Cc1nnsc1C1=NNC2SC(c3cccc(OC(F)(F)F)c3)=NN12 (stereo not drawn)", "readoutType": "inhibition of growth at 50 µg/mL", "measurement": "17.8%"}
{"molecule": "Cc1nnsc1C1=NNC2SC(c3c(Cl)cccc3Cl)=NN12 (stereo not drawn)", "readoutType": "inhibition of growth at 50 µg/mL", "measurement": "20%"}

Now for a further molecule.
Task item: Request the reported inhibition of growth at 50 µg/mL associated with CCc1cc(C2=NN3C(c4snnc4C)=NNC3S2)nn1C (stereo not drawn)
Reply: 4.8%

----------
- Tested on: Botryosphaeria berengeriana
- testDetails: Fungicide activity against Botryosphaeria berengeriana assessed as growth inhibition at 50 ug/mL at 24 to 26 degC measured after 2 days
- Assay type: functional
- conditionDescription: 48 h, read-out: GI
Decide by inhibition of growth at 50 µg/mL: equal to or exceeding 20% means Condition met, less means Condition not met.

{"compound": "Cc1nnsc1C1=NNC2SC(c3ccc(F)cc3)=NN12 (centres undefined)", "studyTarget": "Botryosphaeria berengeriana", "categoryLabel": "Condition not met"}
{"compound": "Cc1nnsc1C1=NNC2SC(c3cccc(OC(F)(F)F)c3)=NN12 (centres undefined)", "studyTarget": "Botryosphaeria berengeriana", "categoryLabel": "Condition met"}
{"compound": "Cc1nnsc1C1=NNC2SC(c3cccc([N+](=O)[O-])c3)=NN12 (centres undefined)", "studyTarget": "Botryosphaeria berengeriana", "categoryLabel": "Condition not met"}
{"compound": "CCCC1=NN2C(c3snnc3C)=NNC2S1 (centres undefined)", "studyTarget": "Botryosphaeria berengeriana", "categoryLabel": "Condition met"}
{"compound": "Cc1nnsc1C1=NNC2SC(c3ccco3)=NN12 (centres undefined)", "studyTarget": "Botryosphaeria berengeriana", "categoryLabel": "Condition met"}
{"compound": "CCc1cc(C2=NN3C(c4snnc4C)=NNC3S2)nn1C (centres undefined)", "studyTarget": "Botryosphaeria berengeriana", "categoryLabel": "Condition not met"}
{"compound": "Cc1nnsc1C1=NNC2SC(COc3ccc(Cl)cc3Cl)=NN12 (centres undefined)", "studyTarget": "Botryosphaeria berengeriana", "categoryLabel": "Condition met"}
{"compound": "Cc1nnsc1C1=NNC2SC(/C=C/c3ccccc3)=NN12 (centres undefined)", "studyTarget": "Botryosphaeria berengeriana", "categoryLabel": "Condition met"}

In the following, a different compound is considered.
Task item: Reported inhibition of growth at 50 µg/mL at or above 20%? COc1ccc(C2=NN3C(c4snnc4C)=NNC3S2)cc1 (centres undefined)
Reply: Condition not met
